Target: Indoleamine 2,3-dioxygenase 1 (Homo sapiens)
Test: Inhibition of N-terminal His-tagged recombinant human IDO1 extracted from Escherichia coli Transetta (DE3) using L-tryptophan as substrate preincubated for 5 mins followed by substrate addition and measured after 1 hrs by absorbance based microplate reader
observable: IC50 (µM)

>>> reported_result("COc1ccc(-c2cc3ccc(OC)c(O)c3cn2)cc1")
0.71
>>> reported_result("COc1ccc2cc(-c3cccs3)ncc2c1OC")
11.2
>>> reported_result("COc1ccc2cc(-c3ccccc3)ncc2c1O")
0.89
>>> reported_result("COc1ccc2cc(-c3ccc4c(c3)OCO4)ncc2c1O")
5.1
>>> reported_result("COc1ccc2cc(-c3ccc(NC(C)=O)cc3)ncc2c1O")
2.11

(1) COc1ccc2cc(-c3ccc(NS(C)(=O)=O)cc3)ncc2c1O
(2) COc1ccc2cc(-c3ccc(NS(=O)(=O)C4CC4)cc3)ncc2c1O
Query :: // pick min by IC50: 1 , 2 Answer = label.
Result :: 1
(1: 1.24 µM, 2: 4.54 µM)

(P) COc1ccc2cc(-c3ccc(NC(=O)C(C)(C)C)cc3)ncc2c1O
(Q) COc1ccc2cc(C34C[C@H]5C[C@@H](C3)C[C@@H](C4)C5)ncc2c1OC
Query :: Of the two listed items, which has the higher IC50? First: P Second: Q Answer = label.
Result :: Q
(Q: 17.8 µM, P: 2.81 µM)

====

Experiment: Cmax in male Sprague-Dawley rat at 20 mg/kg, ip measured after 8 hrs by LC-MS analysis
Assay type: ADME, organism-based
Conditions: in vivo
observable: Cmax (ng/mL)
Answer with a number only, understood to be in ng/mL.

Query :: Can you look up the measured Cmax of "COc1ccc2cc(-c3ccc(NS(=O)(=O)C(F)(F)F)cc3)ncc2c1O" for me?
Result :: 11400

====

Target: Tryptophan 2,3-dioxygenase (Homo sapiens, UniProt P48775)
Sequence (P48775 whole entry): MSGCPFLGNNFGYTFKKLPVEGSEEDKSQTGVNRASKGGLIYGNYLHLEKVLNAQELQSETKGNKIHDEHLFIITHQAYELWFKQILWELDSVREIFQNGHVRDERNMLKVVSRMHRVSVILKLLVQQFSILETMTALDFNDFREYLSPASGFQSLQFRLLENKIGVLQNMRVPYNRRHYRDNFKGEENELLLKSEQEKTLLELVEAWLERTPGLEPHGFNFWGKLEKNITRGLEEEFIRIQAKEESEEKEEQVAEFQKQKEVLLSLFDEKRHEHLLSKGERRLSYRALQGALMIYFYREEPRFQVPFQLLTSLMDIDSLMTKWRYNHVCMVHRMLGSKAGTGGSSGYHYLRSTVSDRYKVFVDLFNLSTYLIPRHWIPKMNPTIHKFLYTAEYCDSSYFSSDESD
observable: pKd
FYI, pKd means -log10 of a concentration in mol per litre.

Query :: For Tryptophan 2,3-dioxygenase (Homo sapiens, UniProt P48775), provide pKd of "COc1ccc2cc(-c3ccc(NS(=O)(=O)C(F)(F)F)cc3)ncc2c1O" please.
Result :: 6.13

====

Assay: Half-life in male Sprague-Dawley rat at 20 mg/kg, ip measured after 8 hrs by LC-MS analysis
Type: ADME, organism-based
Conditions: in vivo
observable: half-life (h)
Answer with a number only, understood to be in h.

Query :: Can you look up the measured half-life of "COc1ccc2cc(-c3ccc(NS(=O)(=O)C(F)(F)F)cc3)ncc2c1O" for me?
Result :: 1.2

====

Molecular target: Indoleamine 2,3-dioxygenase 1 (Homo sapiens)
Assay: Inhibition of N-terminal His-tagged recombinant human IDO1 extracted from Escherichia coli Transetta (DE3) using L-tryptophan as substrate preincubated for 5 mins followed by substrate addition and measured after 1 hrs by absorbance based microplate reader
pIC50: −log10 of the molar value.
observable: pIC50

>>> reported_result("COc1ccc2cc(-c3ccc(NC(=O)Nc4ccccc4)cc3)ncc2c1O")
4.30
>>> reported_result("COc1ccc2cc(-c3ccc(NS(=O)(=O)N4CCCCC4)cc3)ncc2c1O")
4.81
>>> reported_result("COc1ccc2cc(-c3ccc(NS(=O)(=O)C(F)(F)F)cc3)ncc2c1O")
6.51

(A) COc1ccc2cc(-c3ccc(NC(=O)c4ccccc4)cc3)ncc2c1O
(B) COc1ccc(-c2cc3ccc(OC)c(OC)c3cn2)cc1
Query :: // pick min by pIC50: A , B Answer = label.
Result :: B
(B: 4.95, A: 5.35)

====

Test: Tmax in male Sprague-Dawley rat at 100 mg/kg, po measured after 8 hrs by LC-MS analysis
Type: ADME, organism-based
Details: in vivo
observable: Tmax (h)
Answer with a number only, understood to be in h.

Query :: Can you look up the measured Tmax of "COc1ccc2cc(-c3ccc(NS(=O)(=O)C(F)(F)F)cc3)ncc2c1O" for me?
Result :: 1.33

====

Assay: AUC (0 to infinity) in male Sprague-Dawley rat at 20 mg/kg, ip measured after 8 hrs by LC-MS analysis
Assay type: ADME, organism-based
Settings: in vivo
observable: AUC(0-inf) (ng·h/mL)
Answer with a number only, understood to be in ng·h/mL.

Query :: Can you look up the measured AUC(0-inf) of "COc1ccc2cc(-c3ccc(NS(=O)(=O)C(F)(F)F)cc3)ncc2c1O" for me?
Result :: 6660

====

Biological target: Indoleamine 2,3-dioxygenase 1 (Homo sapiens)
Assay: Inhibition of N-terminal His-tagged recombinant human IDO1 extracted from Escherichia coli Transetta (DE3) using L-tryptophan as substrate preincubated for 5 mins followed by substrate addition and measured after 1 hrs by absorbance based microplate reader
pIC50: −log10 of the molar value.
observable: pIC50

>>> reported_result("COc1cccc(C(=O)Nc2ccc(-c3cc4ccc(OC)c(O)c4cn3)cc2)c1")
4.85

(I) COc1ccc2cc(-c3ccc(C(=O)Nc4ccccc4)cc3)ncc2c1O
(II) COc1ccc2cc(-c3ccc(F)cc3)ncc2c1OC
(III) COc1ccc2cc(-c3ccc(Br)cc3)ncc2c1OC
(IV) COc1ccc2cc(-c3cccs3)ncc2c1O
Query :: # rank by pIC50, ascending (min first) List labels; respect the requested ordering.
Result :: III, II, IV, I

====

Test: AUC (0 to t) in male Sprague-Dawley rat at 100 mg/kg, po measured after 8 hrs by LC-MS analysis
Type: ADME, organism-based
Settings: in vivo
observable: AUC(0-t) at 8 h (ng·h/mL)
Answer with a number only, understood to be in ng·h/mL.

Query :: Can you look up the measured AUC(0-t) at 8 h of "COc1ccc2cc(-c3ccc(NS(=O)(=O)C(F)(F)F)cc3)ncc2c1O" for me?
Result :: 23300

====

Biological target: Indoleamine 2,3-dioxygenase 1 (Homo sapiens)
Assay: Inhibition of IDO1 in IFN-gamma induced human HeLa cells using L-tryptophan as substrate incubated for 24 hrs by absorbance based microplate analysis
Format: cell-based
observable: IC50 (µM)

>>> reported_result("COc1ccc2cc(-c3ccccc3)ncc2c1O")
17.1

(A) COc1ccc2cc(-c3ccc(NS(=O)(=O)C(F)(F)F)cc3)ncc2c1O
(B) COc1ccc(-c2cc3ccc(OC)c(O)c3cn2)cc1
(C) COc1ccc2cc(-c3ccc(NS(C)(=O)=O)cc3)ncc2c1O
Query :: # rank by IC50, ascending (min first) List labels; respect the requested ordering.
Result :: A, B, C

====

Assay: Volume of distribution in male Sprague-Dawley rat at 2 mg/kg, iv measured after 8 hrs by LC-MS analysis
Type: ADME, organism-based
Details: in vivo
observable: Vd (L/kg)
Answer with a number only, understood to be in L/kg.

Query :: Can you look up the measured Vd of "COc1ccc2cc(-c3ccc(NS(=O)(=O)C(F)(F)F)cc3)ncc2c1O" for me?
Result :: 6.9

====

Biological target: Indoleamine 2,3-dioxygenase 1 (Homo sapiens, UniProt P14902)
Sequence (P14902 whole entry): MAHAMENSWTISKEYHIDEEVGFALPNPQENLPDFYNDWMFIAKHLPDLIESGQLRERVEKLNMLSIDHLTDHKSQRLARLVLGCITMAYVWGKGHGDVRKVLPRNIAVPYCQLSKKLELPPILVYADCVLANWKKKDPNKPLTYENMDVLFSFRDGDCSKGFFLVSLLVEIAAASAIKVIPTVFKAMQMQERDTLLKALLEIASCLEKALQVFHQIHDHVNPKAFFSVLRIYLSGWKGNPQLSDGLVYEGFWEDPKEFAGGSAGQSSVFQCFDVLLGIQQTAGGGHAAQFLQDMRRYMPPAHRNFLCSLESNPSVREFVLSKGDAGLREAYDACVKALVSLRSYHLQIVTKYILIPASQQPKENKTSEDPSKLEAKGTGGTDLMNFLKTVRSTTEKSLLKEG
Assay: Inhibition of N-terminal His-tagged recombinant human IDO1 extracted from Escherichia coli Transetta (DE3) using L-tryptophan as substrate preincubated for 5 mins followed by substrate addition and measured after 1 hrs by absorbance based microplate reader
pIC50: −log10 of the molar value.
observable: pIC50

(1) COc1ccc2cc(-c3ccccc3)ncc2c1OC
(2) Oc1cccc2cc(-c3ccccc3)ncc12
Query :: Of the two listed items, which has the higher pIC50? First: 1 Second: 2 Answer = label.
Result :: 1
(1: 5.11, 2: 4.15)

====

Test: Clearance in male Sprague-Dawley rat at 2 mg/kg, iv measured after 8 hrs by LC-MS analysis
Assay type: ADME, organism-based
Conditions: in vivo
observable: clearance (L/h/kg)
Answer with a number only, understood to be in L/h/kg.

Query :: Can you look up the measured clearance of "COc1ccc2cc(-c3ccc(NS(=O)(=O)C(F)(F)F)cc3)ncc2c1O" for me?
Result :: 2.25

====

Assay: Half-life in male Sprague-Dawley rat at 2 mg/kg, iv measured after 8 hrs by LC-MS analysis
Type: ADME, organism-based
Conditions: in vivo
observable: half-life (h)
Answer with a number only, understood to be in h.

Query :: Can you look up the measured half-life of "COc1ccc2cc(-c3ccc(NS(=O)(=O)C(F)(F)F)cc3)ncc2c1O" for me?
Result :: 2.14

====

As an illustration, consider measured IC50 for compounds on Tryptophan 2,3-dioxygenase (Homo sapiens, UniProt P48775).
observable: IC50 (µM)

# annotated cases, reported IC50 shown
>>> reported_result("COc1ccc2cc(-c3ccccc3)ncc2c1O")
24
>>> reported_result("COc1ccc2cc(-c3ccc(NC(=O)c4ccccc4)cc3)ncc2c1O")
14.6
>>> reported_result("COc1ccc2cc(-c3ccc(C(=O)Nc4ccccc4)cc3)ncc2c1O")
22.3

(1) COc1ccc2cc(-c3ccc4c(c3)OCO4)ncc2c1O
(2) COc1ccc2cc(-c3ccc(NS(C)(=O)=O)cc3)ncc2c1O
(3) COc1ccc2cc(-c3ccc(NS(=O)(=O)C(F)(F)F)cc3)ncc2c1O
Query :: Sort these compounds on IC50 so the largest reading comes first. List labels; respect the requested ordering.
Result :: 1, 2, 3
(1: 25.8 µM, 2: 14.8 µM, 3: 7.23 µM)
